test system: mutant E; format: cell-based; details: FR=IC50(mutant strain)/IC50(HIV-1 strain LAI)
Values of FR towards mutant E strictly less than 4 map to t, and values of at least 4 map to f.

Task: Here's an entry: CC(=O)Nc1nc2ccc(S(=O)(=O)N(CC(C)C)C[C@@H](O)[C@H](Cc3ccccc3)NC(=O)COc3c(C)cccc3C)cc2[nH]1 . Is its FR towards mutant E below 4?
Output: t

Task: hey, is FR towards mutant E for CC(C)CN(C[C@@H](O)[C@H](Cc1ccccc1)NC(=O)OC(C)(C)C)S(=O)(=O)c1ccc2nc(N)n(Cc3ccccc3)c2c1 lower than 4 or not?
Output: t

* * *

Overview of reported Tox (pCC50) across a group of molecules:
system: mock-infected MT4 cells; test: Toxicity on mock-infected MT4 cells (CC50); details: pCC50 value as determined with mock transfected cells
// return a plain number; no unit text

Task: Any idea what Tox (pCC50) came out for CC(C)CN(C[C@@H](O)[C@H](Cc1ccccc1)NC(=O)O[C@H]1CCOC1)S(=O)(=O)c1ccc2ncn(CCc3ccccc3)c2c1 on mock-infected MT4 cells?
Output: 4.2

---
Task: Hello, I am looking for reported Tox (pCC50) with mock-infected MT4 cells for CC(C)CN(CC(O)C(Cc1ccccc1)NC(=O)OC1COC2OCCC12)S(=O)(=O)c1ccc2ncn(CCc3ccccc3)c2c1 (stereo not drawn) . Could you help?
Output: 4.1

Task: Write down the reported Tox (pCC50) of CC(C)CN(C[C@@H](O)[C@H](Cc1ccccc1)NC(=O)OC(C)(C)C)S(=O)(=O)c1ccc2ncn(CCc3ccccc3)c2c1 , test system: mock-infected MT4 cells.
Output: 4.99

Task: Under mock-infected MT4 cells: Tox (pCC50) value of COC(=O)Nc1nc2ccc(S(=O)(=O)N(CC(C)C)C[C@@H](O)[C@H](Cc3ccccc3)NC(=O)COc3c(C)cc(CN)cc3C)cc2[nH]1 ?
Output: 4.86

* * *

Catalogue of compounds with associated CC50 at 5 days
test: in vitro; details: human
Reply numerically in µM, unit not repeated.

Task: What does the record list as CC50 at 5 days for CC(C)CN(C[C@@H](O)[C@H](Cc1ccccc1)NC(=O)O[C@H]1CO[C@H]2OCC[C@H]21)S(=O)(=O)c1ccc2ncn(Cc3ccccc3)c2c1 [Compound 1] ?
Output: 63.1

Note: attention shifts to another entry.
Task: Using the record for Cc1nc2ccc(S(=O)(=O)N(CC(C)C)C[C@@H](O)[C@H](Cc3ccccc3)NC(=O)O[C@H]3CO[C@H]4OCC[C@H]43)cc2n1Cc1ccccc1 [Compound 2] , report its CC50 at 5 days.
Output: 63.1

* * *

The following compounds are shown together with reported WT (pIC50 against wild type HIV-LAI strain) values.
tested on: HIV-1 strain LAI; test: Cellular anti-HIV assay, MT4 cells, MTT readout, wild type HIV-1 strain LAI; format: cell-based; settings: Table 4; wild type HIV-LAI strain
Answer with the value's number alone.

Example compounds with recorded WT (pIC50 against wild type HIV-LAI strain):
Task: Form field - read-out: WT (pIC50 against wild type HIV-LAI strain); system: HIV-1 strain LAI; submitted item: CC(=O)Nc1nc2ccc(S(=O)(=O)N(CC(C)C)C[C@@H](O)[C@H](Cc3ccccc3)NC(=O)O[C@H]3CCOC3)cc2[nH]1 [Compound 27]
Output: 7.3

Task: Lab request: please report WT (pIC50 against wild type HIV-LAI strain) under test system HIV-1 strain LAI for Cc1cccc(C)c1OCC(=O)N[C@@H](Cc1ccccc1)[C@H](O)CN(CC(C)C)S(=O)(=O)c1ccc2nc(N)[nH]c2c1 [Compound 36]
Output: 6.5

Task: Reported WT (pIC50 against wild type HIV-LAI strain) for HIV-1 strain LAI, given CC(C)CN(C[C@@H](O)[C@H](Cc1ccccc1)NC(=O)O[C@H]1CCOC1)S(=O)(=O)c1ccc2ncn(C)c2c1 [Compound 16] ?
Output: 7.7

Task: // fetch HIV-1 strain LAI WT (pIC50 against wild type HIV-LAI strain) for COC(=O)Nc1nc2ccc(S(=O)(=O)N(CC(C)C)C[C@@H](O)[C@H](Cc3ccccc3)NC(=O)c3ccc([N+](=O)[O-])cc3C)cc2[nH]1 [Compound 11]
Output: 8.0

Task: Please provide the recorded WT (pIC50 against wild type HIV-LAI strain) for COc1ccc(C(=O)Nc2nc3ccc(S(=O)(=O)N(CC(C)C)C[C@@H](O)[C@H](Cc4ccccc4)NC(=O)COc4c(C)cccc4C)cc3[nH]2)cc1 [Compound 37] , tested on HIV-1 strain LAI.
Output: 6.9

***
Task: Any idea what WT (pIC50 against wild type HIV-LAI strain) came out for CC(C)CN(C[C@@H](O)[C@H](Cc1ccccc1)NC(=O)OCc1cccnc1)S(=O)(=O)c1ccc2nc(N)[nH]c2c1 [Compound 54] on HIV-1 strain LAI?
Output: 5.8

* * *

test system: mock-infected MT4 cells; assay: in vitro
Attribute: Tox (pCC50)

Task: // fetch mock-infected MT4 cells Tox (pCC50) for CC(C)CN(C[C@@H](O)[C@H](Cc1ccccc1)NC(=O)OC1COC2OCCC12)S(=O)(=O)c1ccc2nc(N)[nH]c2c1 (stereo partly drawn)
Output: <4

Task: Request - read-out Tox (pCC50) | tested on mock-infected MT4 cells | compound Cc1cccc(C)c1OCC(=O)N[C@@H](Cc1ccccc1)[C@H](O)CN(CC(C)C)S(=O)(=O)c1ccc2ncn(C)c2c1
Output: 4.24

Task: What measured Tox (pCC50) is associated with COC(=O)Nc1nc2ccc(S(=O)(=O)N(CC(C)C)C[C@@H](O)[C@H](Cc3ccccc3)NC(=O)c3ccc(O)cc3C)cc2[nH]1 on mock-infected MT4 cells?
Output: 4.3

Task: Lab request: please report Tox (pCC50) under test system mock-infected MT4 cells for CC(=O)Nc1nc2ccc(S(=O)(=O)N(CC(C)C)C[C@@H](O)[C@H](Cc3ccccc3)NC(=O)OC3COC4OCCC34)cc2[nH]1 (stereo partly drawn)
Output: <4

* * *

The entries below come with measured FR towards mutant E values attached.
system: mutant E; format: cell-based; details: FR=IC50(mutant strain)/IC50(HIV-1 strain LAI)
Answer field: number only, no words.

Task: Dear colleague, I am looking for the recorded FR towards mutant E of the following molecule: COC(=O)Nc1nc2ccc(S(=O)(=O)N(CC(C)C)C[C@@H](O)[C@H](Cc3ccccc3)NC(=O)COc3c(C)cccc3C)cc2[nH]1 [Compound 6]
Output: 1.6

Task: For the molecule CC(C)CN(CC(O)C(Cc1ccccc1)NC(=O)OC1COC2OCCC12)S(=O)(=O)c1ccc2ncn(Cc3cncn3C)c2c1 (stereo not drawn) [Compound 51] , what FR towards mutant E is on record?
Output: 0.89

Further cases:
Task: // FR towards mutant E lookup, key: CC(C)CN(C[C@@H](O)[C@H](Cc1ccccc1)NC(=O)OCc1cccnc1)S(=O)(=O)c1ccc2nc[nH]c2c1 [Compound 35]
Output: 17

* * *

Documented Tox (pCC50) across a set of compounds
System: mock-infected MT4 cells
Assay: Toxicity on mock-infected MT4 cells (CC50)
Settings: pCC50 value as determined with mock transfected cells
Method: HIV- or mock-infected MT4 cells were incubated for five days in the presence of various concentrations of the inhibitor. […] Cell viability is measured by measuring the concentration of MTT, a yellow, water soluble tetrazolium dye that is converted to a purple, water insoluble formazan in the mitochondria of living cells only. Upon solubilization of the resulting formazan crystals with isopropanol, the absorbance of the solution is monitored at 540 nm. […]

Here is how some compounds turned out for Tox (pCC50).
Task: Given the entry CC(C)CN(CC(O)C(Cc1ccccc1)NC(=O)OC1COC2OCCC12)S(=O)(=O)c1ccc2nc(NC(=O)OCCN(C)C)[nH]c2c1 (stereo not drawn) [Compound 48] , report its measured Tox (pCC50).
Output: <4

Task: State the recorded Tox (pCC50) for this entry: CC(C)CN(C[C@@H](O)[C@H](Cc1ccccc1)NC(=O)OCc1cccnc1)S(=O)(=O)c1ccc2nc[nH]c2c1 [Compound 35]
Output: <4

Continuing:
Task: If you can, please state the reported Tox (pCC50) value of COC(=O)Nc1nc2ccc(S(=O)(=O)N(CC(C)C)C[C@@H](O)[C@H](Cc3ccccc3)NC(=O)COc3c(C)cc(C#N)cc3C)cc2[nH]1 [Compound 12] .
Output: <4

* * *

tested on: HIV-1 strain LAI; test: Cellular anti-HIV assay, MT4 cells, MTT readout, wild type HIV-1 strain LAI; format: cell-based; details: Table 4; wild type HIV-LAI strain
property-measured: WT (pIC50 against wild type HIV-LAI strain)

Here's what some known entries look like.
Task: Returns the measured WT (pIC50 against wild type HIV-LAI strain) for the input compound. Input: COC(=O)Nc1nc2ccc(S(=O)(=O)N(CC(C)C)C[C@@H](O)[C@H](Cc3ccccc3)NC(=O)COc3c(C)cc(C#N)cc3C)cc2[nH]1
Output: 7.8

Task: Recorded WT (pIC50 against wild type HIV-LAI strain) for CC(C)CN(C[C@@H](O)[C@H](Cc1ccccc1)NC(=O)OCc1cncs1)S(=O)(=O)c1ccc2nc[nH]c2c1 , please?
Output: 7.3

Task: Query (compound): CC(C)CN(C[C@@H](O)[C@H](Cc1ccccc1)NC(=O)OC1COC2OCCC12)S(=O)(=O)c1ccc2nc(N)[nH]c2c1 (stereo partly drawn) ; field requested: WT (pIC50 against wild type HIV-LAI strain)
Output: 5.3

Task: Record request: WT (pIC50 against wild type HIV-LAI strain) value, item Cc1cc(OCC(=O)N[C@@H](Cc2ccccc2)[C@H](O)CN(CC(C)C)S(=O)(=O)c2ccc3nc[nH]c3c2)no1
Output: 6.3

Task: # lookup: WT (pIC50 against wild type HIV-LAI strain) of CC(C)CN(C[C@@H](O)[C@H](Cc1ccccc1)NC(=O)OCc1cncs1)S(=O)(=O)c1ccc2ncn(Cc3ccccc3)c2c1
Output: 7.1

More entries:
Task: For the compound CC(C)CN(C[C@@H](O)[C@H](Cc1ccccc1)NC(=O)OCc1cncs1)S(=O)(=O)c1ccc2ncn(CC(C)C)c2c1 , what WT (pIC50 against wild type HIV-LAI strain) is on record?
Output: 7.4

Task: Requested field: WT (pIC50 against wild type HIV-LAI strain). Item: Cc1cccc(C)c1OCC(=O)N[C@@H](Cc1ccccc1)[C@H](O)CN(CC(C)C)S(=O)(=O)c1ccc2nc(N)n(C)c2c1
Output: 7.7

Task: Look at this compound and give its reported WT (pIC50 against wild type HIV-LAI strain). CC(C)CN(C[C@@H](O)[C@H](Cc1ccccc1)NC(=O)O[C@H]1CO[C@H]2OCC[C@H]21)S(=O)(=O)c1ccc2nc(NCCN3CCCC3)n(CCc3ccccc3)c2c1
Output: 6.4

Task: Quick one: WT (pIC50 against wild type HIV-LAI strain) of CC(C)CN(C[C@@H](O)[C@H](Cc1ccccc1)NC(=O)OCc1cncs1)S(=O)(=O)c1ccc2ncn(C)c2c1 ?
Output: 7.7

Task: For the compound CC(C)CN(CC(O)C(Cc1ccccc1)NC(=O)OC1COC2OCCC12)S(=O)(=O)c1ccc2ncn(CCc3ccccc3)c2c1 (stereo not drawn) , what WT (pIC50 against wild type HIV-LAI strain) is on record?
Output: 8.7

Task: Look at this compound and give its reported WT (pIC50 against wild type HIV-LAI strain). CC(C)CN(CC(O)C(Cc1ccccc1)NC(=O)OC1COC2OCCC12)S(=O)(=O)c1ccc2nc(CO)[nH]c2c1 (stereo not drawn)
Output: 5.7

Task: Name the reported WT (pIC50 against wild type HIV-LAI strain) value associated with the compound COC(=O)Nc1nc2ccc(S(=O)(=O)N(CC(C)C)C[C@@H](O)[C@H](Cc3ccccc3)NC(=O)c3ccc(O)cc3C)cc2[nH]1
Output: 7.1
